- protocol: plasma protein binding
- Type: in vitro ADME
- experimental.conditions: human, read-out: PPB (fraction unbound)
measure.name: fraction unbound
The answer should be a number; do not append a unit.

Req: Would you kindly share the measured fraction unbound for CC(=O)N[C@H](Cc1ccc(O)cc1)C(=O)N[C@H](CCCNC(=N)N)C(=O)N[C@H](Cc1ccccc1)C(N)=O [DTP3, Ac-YRF-NH2] ?
Resp: 0.933

----------
- protocol: plasma protein binding
- Format: in vitro ADME
- experimental.conditions: mouse, read-out: PPB (fraction unbound)
- From the text: Pharmacophore Model Building The pharmacophore predictive Broad- Panel Kinase Profiling according to in-house protocols therein. Pharmacokinetic Anal yses In vitro pharmacok inetic assays were […]
measure.name: fraction unbound
Field format: numeric only.

Req: Look up fraction unbound for this molecule: CC(=O)N[C@H](Cc1ccc(O)cc1)C(=O)N[C@H](CCCNC(=N)N)C(=O)N[C@H](Cc1ccccc1)C(N)=O
Resp: 0.42
